Where these numbers come from: BindingDB's records for doi:10.1021/acs.jmedchem.2c02005

Assay: Negative allosteric modulator activity at human P-gp I1115Y mutant expressed in HEK293FT cells assessed as reversal of P-gp mediated PTX resistance by measuring paclitaxel IC50 incubated for 5 days by MTS assay (Rvb = 6.9 +/- 1.2 nM)
pIC50: −log10 of the molar value.
metric name: pIC50

smiles input | metric name | assay value
O=c1cc(-c2ccc(OCCOCCNCc3ccccc3)cc2)oc2ccccc12 | pIC50 | 8.09

====

Test: Negative allosteric modulator activity at human P-gp H1195A mutant expressed in HEK293FT cells assessed as reversal of P-gp mediated PTX resistance by measuring paclitaxel IC50 incubated for 5 days by MTS assay (Rvb = 3.4 +/- 1.5 nM)

smiles input | units | IC50
O=c1cc(-c2ccc(OCCOCCNCc3ccccc3)cc2)oc2ccccc12 | nM | 4.7

====

Experiment: Negative allosteric modulator activity at human P-gp I1115A mutant expressed in HEK293FT cells assessed as reversal of P-gp mediated PTX resistance by measuring paclitaxel IC50 incubated for 5 days by MTS assay (Rvb = 7.5 +/- 2.4 nM)

smiles input | IC50 (nM)
O=c1cc(-c2ccc(OCCOCCNCc3ccccc3)cc2)oc2ccccc12 | 6.3
